Hi there, I'd appreciate the recorded Spec Values for every entry that follows.
- Tested on: MCL-1ΔNΔC
- procedure-details: High-throughput competitive FP binding screen, FITC-MCL-1 SAHB/MCL-1ΔNΔC interaction
- condition-info: selectivity for MCL-1ΔNΔC over BCL-XLΔC targeting (BCL-XL % Bound minus MCL-1 % Bound)
Answers are plain numbers.

Here are 3 molecules together with their reported answers.
O=C(/C=C/c1ccc(Br)o1)OCC(=O)c1c[nH]c2ccccc12 :: 52.14
Cc1ccc(C2=NC(=O)C(Cc3cc(O)c(O)c(Br)c3)S2)cc1 (centres unmarked) :: 93.98
O=C(OCC1O[C@H](OC(=O)c2cc(O)c(O)c(OC(=O)c3cc(O)c(O)c(O)c3)c2)[C@H](OC(=O)c2cc(O)c(O)c(OC(=O)c3cc(O)c(O)c(O)c3)c2)[C@@H](OC(=O)c2cc(O)c(O)c(OC(=O)c3cc(O)c(O)c(O)c3)c2)[C@@H]1OC(=O)c1cc(O)c(O)c(OC(=O)c2cc(O)c(O)c(O)c2)c1)c1cc(O)c(O)c(OC(=O)c2cc(O)c(O)c(O)c2)c1 (some centres unmarked) [drawing 178] :: 82.32

// each listed molecule needs a value for Spec Values
1. NC1=C(c2nc3ccccc3s2)CC(=O)N1CCc1ccccc1
2. CN(C)c1ccc2cccc(O)c2n1
3. CNC(=S)N/N=C1\CCOc2ccc3ccccc3c21
4. Cc1ccc(/C=C2\C(=O)Nc3ccc(Br)cc32)o1
5. Cc1nn(-c2ccccc2)c2nc3ccccc3c(N3CCOCC3)c12

result:
52.91
53.86
46.39
58.85
50.97

Look up Spec Values for the entries below, preserving their order.
1. CN1c2ccccc2C(C)(C)C12C=Cc1cc(O)ccc1O2 (centres unmarked)
2. O=C(O)CC1NC(=S)N(Cc2ccccc2)C1=O (centres unmarked)
3. Oc1c(Cl)cc(Cl)cc1Sc1cc(Cl)cc(Cl)c1Cl
4. CC1=C(C#N)C(=O)N(CC(C)O)C(=O)/C1=C/c1ccc(-c2ccc(Cl)cc2)o1 (centres unmarked)
5. O=C1N/C(=N\c2ccc(F)cc2)S/C1=C/c1ccc(N2CCCCCC2)o1
6. CC1(C)c2ssc(=S)c2-c2ccccc2N1C(=O)CSC#N
7. CCCN1C(=O)C(C#N)=C(C)/C(=C\c2ccc(-c3ccc(Br)cc3)o2)C1=O
8. COc1cc(OC)c(C2=NOC(C(=O)Nc3cc(C)n(CC(=O)NCc4ccco4)n3)C2)cc1Cl (centres unmarked)

result:
[73.1, 50.19, 73.22, 74.32, 47.38, 46.04, 81.6, 98.12]

Below are some molecules; for each one, tell me its Spec Values.
1. O=c1c(O)cccc2cc(O)c(O)c(O)c12
2. Cn1c(/N=C/c2c(O)ccc3ccccc23)nc2ccc(Br)cc21
3. CC(C)(C)c1ccc(-c2nnc(S)[nH]2)cc1
4. CCOC(=O)C(C)Oc1cccc2c(=O)n(CC(=O)Nc3ccc4c(c3)CCCO4)ccc12 (centres unmarked)

result:
1: 53.55; 2: 60.88; 3: 48.83; 4: 67.48

* * *

Kindly state Spec Values for each of the entries shown.
- Tested on: MCL-1ΔNΔC
- procedure-details: High-throughput competitive FP binding screen, FITC-MCL-1 SAHB/MCL-1ΔNΔC interaction
- condition-info: selectivity for MCL-1ΔNΔC over BCL-XLΔC targeting (BCL-XL % Bound minus MCL-1 % Bound)
Answers are plain numbers.

CC1=C(C#N)C(=O)N=C(O)/C1=C\c1ccc(-c2ccc(S(N)(=O)=O)cc2)o1 [drawing 192] :: 76.4

Would you mind listing Spec Values for each of the following compounds?
1. CCOC(=O)c1cc(C#N)c(SCC(=O)c2cc3ccccc3oc2=O)[nH]c1=O
2. C=CCSc1nnc(-c2ccc(C(C)(C)C)cc2)n1Cc1ccco1

result:
1: 68.9; 2: 52.3
